Each recorded value in this set is attributed to PubChem BioAssay (NCI).

ASSAY_EXPLANATION: NCI Yeast Anticancer Drug Screen. Data for the rad18 strain (AID 177)
MEASUREMENT_CONDITIONS: S. cerevisiae rad18 mutant growth inhibition; at 3.7 µM; hits give high values
This is part of a sample that, as a whole, favours compounds with a hit. Of some 79,000 tested, about 15% had one in any assay.
# growth inhibition annotations
Report as a plain number; the unit % is understood.

Study these solved cases before continuing.
- COC1C(O)C(C)OC(OC2C(Oc3cccc4c(O)c5c(=O)oc6ccc(C)c7c(=O)oc(c34)c5c67)OC(C)C(O)C2O)C1O (centres undefined): 3
- COc1cc(O)c2c(O)c3c(c4c2c1[C@]1(C4)C(C)=CCCC1(C)C)[C@H](O)[C@@]1(O)CC(=O)C(C(N)=O)=C(O)[C@@]1(O)C3=O: 85
- O=C1C2CC(Cl)C(SSC3CC4C(=O)N(SC(Cl)(Cl)C(Cl)Cl)C(=O)C4CC3Cl)CC2C(=O)N1SC(Cl)(Cl)C(Cl)Cl (centres undefined): 97

-- ask I have this molecule here, OC(c1ccc(Br)cc1)C(Cl)(Cl)Cl (centres undefined) , and I need its recorded growth inhibition.
-- reply 4

-- ask Sample Nc1nc(N)c2c(Cl)c(CNc3ccc(C(=O)NC(CC(=O)O)C(=O)O)cc3)ccc2n1 (centres undefined) — what was its growth inhibition?
-- reply 54

-- ask Which growth inhibition value belongs to `O=c1c2ccccc2[se]n1-c1cccnc1` ?
-- reply -26

###

ASSAY_EXPLANATION: NCI Yeast Anticancer Drug Screen. Data for the sgs1 mgt1 strain (AID 161);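 also: 0% = growth of cultures given vehicle only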
MEASUREMENT_CONDITIONS: S. cerevisiae sgs1 mgt1 strain, at 5.0 µM (retest, dose inferred, filed as 0.5), hits give high values
About 79,000 compounds went through this panel and 15% of them were active in at least one assay; those are over-represented in the sample as a whole.
Item-by-item account of growth inhibition
The figure you give is taken to be in %; do not add the unit.

• CCC[CH2][Sn]([Cl])([CH2]C)[O][Sn]([Cl])([CH2]C)[CH2]CCC (stereo not drawn) = 81

-- ask // returns reported growth inhibition for input `CC/C(=C/c1ccc2c(c1)OCO2)[N+](=O)[O-]`
-- reply 68

-- ask Can you look up the measured growth inhibition of `N#C[S-].[Nd+3].c1ccc(-c2ccccn2)nc1.c1ccc(-c2ccccn2)nc1.c1ccc(-c2ccccn2)nc1` for me?
-- reply 44

-- ask Sample CCC[CH2][Sn]1([CH2]CCC)[O]CC(CN2CCCC2)[O]1 (stereo not drawn) — what was its growth inhibition?
-- reply 46

-- ask Recorded growth inhibition of `C[CH2][Sn]([CH2]C)([O]S(C)(=O)=O)[O]S(C)(=O)=O` , please.
-- reply 14

-- ask # input compound: `CN(CCO)CCO` ; wanted: its growth inhibition
-- reply 5

-- ask Endpoint output: growth inhibition of O=C1c2ccc3ccccc3c2CCC1N1CCCCC1 (stereo not drawn) . Value?
-- reply 19

-- ask Consider the compound shown here: `CCOP(=O)(OCC)Oc1ccc([N+](=O)[O-])cc1` What is its recorded growth inhibition?
-- reply 12

-- ask Reported growth inhibition for CC[C@@]1(O)CC(OC2CC(N3CCOCC3)C(O)C(C)O2)c2c(O)c3c(c(O)c2[C@H]1O)C(=O)c1cccc(O)c1C3=O (stereo partly drawn) : what is it?
-- reply 63

-- ask Using the record for `O=CNc1ccccc1.[Hg]` , report its growth inhibition.
-- reply 99

-- ask What does the data say about its growth inhibition? Entry: `O=C1C(F)=C(N2CC2)C(=O)C(F)=C1N1CC1`
-- reply 100

-- ask For the compound shown here, `O=S(=O)([O-])[O-].[OH3+].[OH3+].[OH3+].[Ru+2].c1ccccc1` , give the reported growth inhibition.
-- reply -15

-- ask Item `CS/C([S-])=N/N=C(C)C.CS/C([S-])=N/N=C(C)C.[Ni+2]` has what recorded growth inhibition?
-- reply 28

-- ask What does the record list as growth inhibition for `C=Cc1c2ccccc2cc2ccccc12` ?
-- reply 26

-- ask Query: growth inhibition; subject: `CC[CH2][Sn]([F])([F])[CH2]CC`
-- reply 11

-- ask Form field: reported growth inhibition of CC1C(=O)OCC1(C)O (stereo not drawn)
-- reply -4

-- ask Recorded growth inhibition for `COC1=C(N2CC2)C(=O)C(OC)=C(N2CC2)C1=O` , please?
-- reply 90

-- ask Entry under review: `C1CC[N-]CC1.[Cl][Au]([Cl])[Cl]` . Reported growth inhibition?
-- reply 26

-- ask Entry CC/C(=C(/CC)c1ccc(OP(N)(=O)N(CCCl)CCCl)cc1)c1ccc(OP(N)(=O)N(CCCl)CCCl)cc1 (stereo not drawn) has what growth inhibition?
-- reply 2

-- ask Data request, read-out growth inhibition, for O=P1(Oc2ccccc2)C(c2ccccc2)C(c2ccccc2)=NN1c1ccccc1 (stereo not drawn)
-- reply 23

-- ask Fill blank: measured growth inhibition of the compound `Oc1ccc2ccccc2c1O` is ____.
-- reply 7

-- ask I have this compound here, `CCN(CCCl)c1cc(CN(C)C)cc(NC(=O)c2ccc(C(=O)Nc3cc(CN(C)C)cc(N(CC)CCCl)c3)cc2)c1` , and I need its recorded growth inhibition.
-- reply 39

-- ask Item under review: `Oc1ccc([Te]CCNCC[Te]c2ccc(O)cc2)cc1` . Reported growth inhibition?
-- reply 40

###

ASSAY_EXPLANATION: NCI Yeast Anticancer Drug Screen. Data for the rad50 strain (AID 155);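 also: 0% = growth of vehicle-only cultures of the same strain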
MEASUREMENT_CONDITIONS: S. cerevisiae rad50 strain growth inhibition; at 5.0 µM (retest, dose inferred, filed as 0.5)
About 79,000 compounds went through this panel and 15% of them were active in at least one assay; those are over-represented in the sample as a whole. The source made the active and inactive calls. No stated cut-off is given here; in the data, active means growth inhibition above about 70%; inactive means the rest.
I would appreciate it if you answered using one of these outcomes: 1 for active, -1 for inactive

Worked examples, 5 compounds total:
* c1ccc([Te][Te]c2ccccc2)cc1 | -1
* O=P1(Oc2ccccc2)C(c2ccccc2)C(c2ccccc2)=NN1c1ccccc1 (stereo not given) | -1
* CCN(CC)C1CC(O[C@H]2C[C@](O)(C(=O)CO)Cc3c(O)c4c(c(O)c32)C(=O)c2c(OC)cccc2C4=O)OC(C)C1O (stereo not given in full) | 1
* CCC(C)(C)c1ccc(OP(=S)(S)Oc2ccc(C(C)(C)CC)cc2)cc1 | -1
* CCC[CH2][Sn]([N]=C=S)([N]=C=S)[N]=C=S.O=P(c1ccccc1)(c1ccccc1)c1ccccc1.O=P(c1ccccc1)(c1ccccc1)c1ccccc1 | -1

-- ask Lab log entry: O=C(Nc1ccccc1)OC(C[N+](=O)[O-])C(Cl)(Cl)Cl (stereo not given) — outcome as called in the assay?
-- reply -1

-- ask Which outcome was assigned to NCC(O)c1cccc(O)c1 (stereo not given) in this test?
-- reply -1

-- ask // return assay outcome for `N=P(c1ccccc1)(c1ccccc1)c1ccccc1.[O]=[Cr](=[O])([OH])[O][Cr](=[O])(=[O])[OH]`
-- reply -1

-- ask Can you look up the reported call for `Nc1ccc(Cl)cc1C(=O)c1ccccc1` for me?
-- reply -1

-- ask Hi, sorry to bother you, what did the test record for CC(Br)c1ccccc1 (stereo not given) ?
-- reply -1

###

ASSAY_EXPLANATION: NCI Yeast Anticancer Drug Screen. Data for the rad50 strain (AID 155);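 also: 0% = growth of vehicle-only cultures of the same strain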
MEASUREMENT_CONDITIONS: S. cerevisiae rad50 strain growth inhibition; at 50.0 µM (retest, dose inferred, filed as 5.0); hits give high values
Method: Growth inhibition of yeast strains with defined genetic alterations is measured as a screen for potential anti-cancer activity. Selected strains with alterations in DNA damage repair or cell cycle control were exposed to compounds and growth inhibition was measured relative to vehicle treated controls. The strain used in this assay is rad50
About 79,000 compounds went through this panel and 15% of them were active in at least one assay; those are over-represented in the sample as a whole.
Here the recorded growth inhibition is given for each entry.
Just the number in %, nothing appended.

Below, each entry is followed by its recorded growth inhibition result.
• O=[N+]([O-])c1oc2ccc3ccccc3c2c1CCO = 99
• COc1cc2c(cc1OC)C13CCN4CC5=CCOC6CC(=O)N2C1C6C5CC43 (stereo not given) (tested in a mixture with another compound) = -24
• CC1=[N+](Cc2cc(C)cc(C)c2O)CCCC1 = 4
• CCC[CH2][Sn]1([CH2]CCC)[O]CC(CN(C)Cc2ccccc2)[O]1 (stereo not given) = 3
• CC(Cl)CNC(C)C (stereo not given) = -171

-- ask For COC(=O)CC1(C(=O)O)CC2(Cl)C(Cl)=C(Cl)C1(Cl)C2(Cl)Cl (stereo not given) , what is its reported growth inhibition?
-- reply 30

-- ask Field request: growth inhibition | item: `CCC[CH2][Sn]([CH2]CCC)([CH2]CCC)[O]C(=O)C[N+](C)(C)c1cc[c]([Hg][c]2ccc(N(C)C)cc2)cc1`
-- reply 99

-- ask Quick one: growth inhibition of `O=C1CCC[N]1[Hg][N]1CCCC1=O` ?
-- reply 46

-- ask Give the measured growth inhibition of `CCCCCCC[CH2][Sn]([F])([F])[CH2]CCCCCCC` .
-- reply -7

-- ask // lookup growth inhibition for `O=c1oc2ccccc2c(O)c1C(c1ccc(-c2ccccc2)cc1)c1c(O)c2ccccc2oc1=O`
-- reply 52
